Assay: Example 6: Pharmacokinetic characterisation after s.c. administration
Format: in vivo, rat (Sprague Dawley or Wistar)
Conditions: rat, 70 nmol/kg, plasma
REPORTED_PROPERTY: Cmax (nM)
The reply should contain only the number, in nM.

substance="H-NMDMRC(1)SASVEC(2)KQKC(3)LYAIGSIFGKC(1)MNKKC(2)KC(3)YPR-NH2 [Peptide 54]" unit_abbrev=nM assay_result=50
substance="H-MDMRC(1)SASVEC(2)KQKC(3)LKAIGSIFGKC(1)MNKKC(2)KC(3)YPR-OH [Peptide 6]" unit_abbrev=nM assay_result=48.4
substance="H-NMDMRC(1)SASVEC(2)AQKC(3)LKAIGSIFGKC(1)MNKKC(2)KC(3)YPR-NH2 [Peptide 31]" unit_abbrev=nM assay_result=33.3
substance="H-P[Nle]E[Nle]RC(1)SASVEC(2)AQKC(3)LAAIGSIFGKC(1)[Nle]NKKC(2)KC(3)YPR-OH [Peptide 107]" unit_abbrev=nM assay_result=68.4

For H-P[Nle]E[Nle]RC(1)SASVEC(2)KQKC(3)LAAIGSIFGKC(1)[Nle]NKKC(2)KC(3)YPR-OH [Peptide 100] the substance record lists Cmax as 52.6

For H-NMDMRC(1)SASVEC(2)KQKC(3)LKAIGSIFGKC(1)MNKKC(2)KC(3)YPR-OH [Peptide 3] the substance record lists Cmax as 36.9

For H-PIE[Nle]RC(1)SASVEC(2)KQKC(3)LAAIGSIFGKC(1)[Nle]NKKC(2)KC(3)YPR-OH [Peptide 105] the substance record lists Cmax as 58.6

For H-NMDMRC(1)SASVEC(2)KQKC(3)LAAIGSIFGKC(1)MNKKC(2)KC(3)YPR-NH2 [Peptide 53] the substance record lists Cmax as 31.2

For H-NIDMRC(1)SASVEC(2)KQKC(3)LKAIGSIFGKC(1)MNKKC(2)KC(3)YPR-OH [Peptide 9] the substance record lists Cmax as 76.9

For H-NID[Nle]RC(1)SASVEC(2)KQKC(3)LKAIGSIFGKC(1)[Nle]NKKC(2)KC(3)YPR-OH [Peptide 98] the substance record lists Cmax as 46.5
